# protocol_description: Preliminary evaluation of pharmacokinetics in Beagle dogs
# Assay type: in vivo
# run_parameters: dog, in vivo; Beagle dogs; intravenous 0.5 mg/kg; mean
metric_name: clearance (mL/min/kg)
Give a bare numeral; the unit mL/min/kg is implied.

clearance for `CC(C)Oc1ccc(-c2nc(-c3ccc(CN4CC(C(=O)O)C4)c4ccccc34)no2)cc1C#N.Cl` is 23.3

----------
# system_tested: UniProt Q99500
# Sequence (Q99500 whole entry, species assumed): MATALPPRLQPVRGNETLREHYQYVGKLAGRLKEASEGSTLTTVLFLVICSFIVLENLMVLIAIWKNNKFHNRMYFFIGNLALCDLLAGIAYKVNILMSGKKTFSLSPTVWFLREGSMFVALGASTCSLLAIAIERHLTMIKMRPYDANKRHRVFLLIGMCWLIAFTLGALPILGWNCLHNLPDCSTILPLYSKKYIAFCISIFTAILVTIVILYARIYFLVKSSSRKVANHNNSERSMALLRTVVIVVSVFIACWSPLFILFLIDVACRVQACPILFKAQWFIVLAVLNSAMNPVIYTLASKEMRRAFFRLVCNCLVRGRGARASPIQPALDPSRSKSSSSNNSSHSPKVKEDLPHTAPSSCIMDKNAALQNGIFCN
# protocol_description: Agonistic activity test on S1P receptors, FLIPR
# Assay type: cell-based
# run_parameters: subtype selectivity study; read-out: S1P3 EC50
metric_name: EC50

EC50 for `CC(C)Oc1ccc(-c2nc(-c3ccc(CN4CC(C(=O)O)C4)c4ccccc34)no2)cc1C#N.Cl` is > 10000 nM

EC50 for `CC(C)Oc1ccc(-c2nc(-c3cccc4c3CC[C@@H]4NCCO)no2)cc1C#N` is 2620 nM

EC50 for CCc1cc(/C(C)=N/OCc2ccc(C3CCCCC3)c(C(F)(F)F)c2)ccc1CN1CC(C(=O)O)C1 [Siponmod, reference compound] is > 1000 nM

----------
# protocol_description: Preliminary assessment of in vivo pharmacokinetics in rats
# run_parameters: rat, plasma, iv, 2 mg/kg, intravenous 2 mg/kg; 0.5 h; individual animals 1-3; read-out: Plasma drug concentrations in rats
metric_name: concentration at 0.5 h (ng/mL)
Give a bare numeral; the unit ng/mL is implied.

concentration at 0.5 h for `CC(C)Oc1ccc(-c2nc(-c3ccc(CN4CC(C(=O)O)C4)c4ccccc34)no2)cc1C#N.Cl` is 1570

----------
# protocol_description: Preliminary evaluation of pharmacokinetics in Beagle dogs
# Type: in vivo
# run_parameters: beagle, dog, plasma, iv, 0.5 mg/kg, intravenous 0.5 mg/kg; 3 h; individual animals 1-3; read-out: Plasma drug concentration in Beagle dogs
metric_name: concentration at 3 h (ng/mL)
Give a bare numeral; the unit ng/mL is implied.

concentration at 3 h for CC(C)Oc1ccc(-c2nc(-c3ccc(CN4CC(C(=O)O)C4)c4ccccc34)no2)cc1C#N.Cl [Compound A1] is 20.4

----------
# protocol_description: Preliminary assessment of in vivo pharmacokinetics in rats
# run_parameters: rat, plasma, iv, 2 mg/kg, intravenous 2 mg/kg; 1 h; individual animals 1-3; read-out: Plasma drug concentrations in rats
metric_name: concentration at 1 h (ng/mL)
Give a bare numeral; the unit ng/mL is implied.

concentration at 1 h for `CC(C)Oc1ccc(-c2nc(-c3ccc(CN4CC(C(=O)O)C4)c4ccccc34)no2)cc1C#N.Cl` is 900

----------
# protocol_description: Preliminary evaluation of pharmacokinetics in Beagle dogs
# Type: in vivo
# run_parameters: beagle, dog, plasma, po, 3 mg/kg, Beagle dogs; 3 mg/kg by gavage; range over animals; read-out: peak time Tmax
metric_name: Tmax

Tmax for `CC(C)Oc1ccc(-c2nc(-c3ccc(CN4CC(C(=O)O)C4)c4ccccc34)no2)cc1C#N.Cl` is 0.25 to 2 h

----------
# protocol_description: Preliminary assessment of in vivo pharmacokinetics in rats
# run_parameters: rat, plasma, oral, 20 mg/kg, intragastric 20 mg/kg; 8 h; individual animals 4-6; read-out: Plasma drug concentrations in rats
metric_name: concentration at 8 h (ng/mL)
Give a bare numeral; the unit ng/mL is implied.

concentration at 8 h for CC(C)Oc1ccc(-c2nc(-c3ccc(CN4CC(C(=O)O)C4)c4ccccc34)no2)cc1C#N.Cl [Compound A1] is 65.1

----------
# protocol_description: Preliminary assessment of pharmacokinetics in mice
# Format: in vivo, CD-1 mice
# run_parameters: male, CD-1, mouse, plasma, ip, 20 mg/kg, intraperitoneal injection 20 mg/kg; 4.00 h; mean; read-out: Concentration of A1 Drug in Plasma of Mice
metric_name: concentration at 4 h (ng/mL)
Give a bare numeral; the unit ng/mL is implied.

concentration at 4 h for `CC(C)Oc1ccc(-c2nc(-c3ccc(CN4CC(C(=O)O)C4)c4ccccc34)no2)cc1C#N.Cl` is 370

----------
# protocol_description: Preliminary assessment of in vivo pharmacokinetics in rats
# run_parameters: rat, plasma, iv, 2 mg/kg, intravenous 2 mg/kg; 2 h; mean; read-out: Plasma drug concentrations in rats
metric_name: concentration at 2 h (ng/mL)
Give a bare numeral; the unit ng/mL is implied.

concentration at 2 h for `CC(C)Oc1ccc(-c2nc(-c3ccc(CN4CC(C(=O)O)C4)c4ccccc34)no2)cc1C#N.Cl` is 503

----------
# protocol_description: Preliminary assessment of in vivo pharmacokinetics in rats
# run_parameters: rat, plasma, iv, 2 mg/kg, intravenous 2 mg/kg; 4 h; mean; read-out: Plasma drug concentrations in rats
metric_name: concentration at 4 h (ng/mL)
Give a bare numeral; the unit ng/mL is implied.

concentration at 4 h for `CC(C)Oc1ccc(-c2nc(-c3ccc(CN4CC(C(=O)O)C4)c4ccccc34)no2)cc1C#N.Cl` is 146

----------
# protocol_description: Preliminary evaluation of pharmacokinetics in Beagle dogs
# Type: in vivo
# run_parameters: beagle, dog, plasma, iv, 0.5 mg/kg, intravenous 0.5 mg/kg; 0.083 h; individual animals 1-3; read-out: Plasma drug concentration in Beagle dogs
metric_name: concentration at 0.083 h (ng/mL)
Give a bare numeral; the unit ng/mL is implied.

concentration at 0.083 h for `CC(C)Oc1ccc(-c2nc(-c3ccc(CN4CC(C(=O)O)C4)c4ccccc34)no2)cc1C#N.Cl` is 604

----------
# protocol_description: Preliminary assessment of in vivo pharmacokinetics in rats
# run_parameters: rat, plasma, po, 20 mg/kg, rats; intragastric 20 mg/kg; individual animals 4-6; read-out: Tmax
metric_name: Tmax (min)
Give a bare numeral; the unit min is implied.

Tmax for `CC(C)Oc1ccc(-c2nc(-c3ccc(CN4CC(C(=O)O)C4)c4ccccc34)no2)cc1C#N.Cl` is 30

----------
# protocol_description: Preliminary assessment of in vivo pharmacokinetics in rats
# run_parameters: rat, plasma, oral, 20 mg/kg, intragastric 20 mg/kg; 8 h; mean; read-out: Plasma drug concentrations in rats
metric_name: concentration at 8 h (ng/mL)
Give a bare numeral; the unit ng/mL is implied.

concentration at 8 h for `CC(C)Oc1ccc(-c2nc(-c3ccc(CN4CC(C(=O)O)C4)c4ccccc34)no2)cc1C#N.Cl` is 62

----------
# protocol_description: Preliminary evaluation of pharmacokinetics in Beagle dogs
# Type: in vivo
# run_parameters: beagle, dog, plasma, oral, 3 mg/kg, intragastric 3 mg/kg; 8 h; mean; read-out: Plasma drug concentration in Beagle dogs
metric_name: concentration at 8 h (ng/mL)
Give a bare numeral; the unit ng/mL is implied.

concentration at 8 h for `CC(C)Oc1ccc(-c2nc(-c3ccc(CN4CC(C(=O)O)C4)c4ccccc34)no2)cc1C#N.Cl` is 10.8

----------
# protocol_description: Preliminary assessment of pharmacokinetics in mice
# Type: in vivo, CD-1 mice
# run_parameters: male, CD-1, mouse, plasma, po, 2 mg/kg, title: oral 2 mg/kg; 0.25 h; individual animals 4-6; read-out: Concentration of A1 Drug in Plasma of Mice
metric_name: concentration at 0.25 h (ng/mL)
Give a bare numeral; the unit ng/mL is implied.

concentration at 0.25 h for `CC(C)Oc1ccc(-c2nc(-c3ccc(CN4CC(C(=O)O)C4)c4ccccc34)no2)cc1C#N.Cl` is 1040

----------
# protocol_description: Preliminary assessment of in vivo pharmacokinetics in rats
# run_parameters: rat, plasma, oral, 20 mg/kg, intragastric 20 mg/kg; 24 h; mean; read-out: Plasma drug concentrations in rats
metric_name: concentration at 24 h (ng/mL)
Give a bare numeral; the unit ng/mL is implied.

concentration at 24 h for CC(C)Oc1ccc(-c2nc(-c3ccc(CN4CC(C(=O)O)C4)c4ccccc34)no2)cc1C#N.Cl [Compound A1] is 3.25

----------
# protocol_description: Preliminary assessment of pharmacokinetics in mice
# Type: in vivo, CD-1 mice
# run_parameters: male, CD-1, mouse, plasma, intraperitoneal, 20 mg/kg, title: intraperitoneal 20 mg/kg; 24.0 h; individual animals 1-3; read-out: Concentration of A1 Drug in Plasma of Mice
metric_name: concentration at 24 h

concentration at 24 h for `CC(C)Oc1ccc(-c2nc(-c3ccc(CN4CC(C(=O)O)C4)c4ccccc34)no2)cc1C#N.Cl` is 4.8 ng/mL

----------
# protocol_description: Preliminary evaluation of pharmacokinetics in Beagle dogs
# Assay type: in vivo
# run_parameters: dog, in vivo, po; Beagle dogs; intragastric 3 mg/kg; mean; read-out: AUC0-t
metric_name: AUC0-t (ng·h/mL)
Give a bare numeral; the unit ng·h/mL is implied.

AUC0-t for CC(C)Oc1ccc(-c2nc(-c3ccc(CN4CC(C(=O)O)C4)c4ccccc34)no2)cc1C#N.Cl [Compound A1] is 1160

----------
# protocol_description: Preliminary evaluation of pharmacokinetics in Beagle dogs
# Type: in vivo
# run_parameters: Beagle, dog, plasma, po, 3 mg/kg, Beagle dogs; intragastric 3 mg/kg; mean; read-out: Tmax
metric_name: Tmax (h)
Give a bare numeral; the unit h is implied.

Tmax for CC(C)Oc1ccc(-c2nc(-c3ccc(CN4CC(C(=O)O)C4)c4ccccc34)no2)cc1C#N.Cl [Compound A1] is 1.08
